Target: MMP-13 (Homo sapiens)
Construct: made in house; host or cells: baculovirus / insect cells
Test: In vitro MMP inhibition, Ki determination (fluorogenic substrate II)
Type: biochemical
Details: value outside parentheses; read-out: MMP-13 Ki
Procedure: Several hydroxamic acids and salts thereof were analyzed in in vitro assays to determine their ability to inhibit the MMP cleavage of peptide substrates. […] and IC50 constants were calculated from the assayed hydroxamic acid-MMP interactions. […] The assays from which the Ki determinations were made were performed as follows. […] In the absence of MMP inhibitory activity, substrate II was cleaved at the Gly-Leu bond resulting in an increase of relative fluorescence. […]
recorded metric: Ki

Before answering, review these 8 worked examples.
# compound, Ki
measured = [
    ("O=C(NO)C1(S(=O)(=O)N2CCN(c3ccc(-c4ccc(OC(F)(F)F)cc4)cc3)CC2)CCOCC1", "0.499 nM"),
    ("O=C(NO)C1(S(=O)(=O)N2CCC(c3ccc(-c4cccs4)cn3)CC2)CCOCC1", "1.73 nM"),
    ("COCCN1CCC(C(=O)NO)(S(=O)(=O)N2CCC(c3ncc(CC(C)C)s3)CC2)CC1", "1.56 nM"),
    ("O=C(NO)C1(S(=O)(=O)N2CCN(c3ncc(-c4ccc(C(F)(F)F)cc4)s3)CC2)CCOCC1", "0.167 nM"),
    ("CCCCOc1ccc(N2CCN(S(=O)(=O)C3(C(=O)NO)CCN(C4CC4)CC3)CC2)cc1", "0.23 nM"),
    ("O=C(NO)C1(S(=O)(=O)N2CCC(c3ccc(Br)cn3)CC2)CCOCC1", "0.863 nM"),
    ("O=C(NO)C1(S(=O)(=O)N2CCN(c3nc(-c4ccccc4)cs3)CC2)CCOCC1", "2420 nM"),
    ("O=C(NO)C1(S(=O)(=O)N2CCN(c3ccc(OCC(F)(F)C(F)F)cc3)CC2)CCOCC1 [Example 326]", "0.31 nM"),
]

Your task in this section: give Ki for each listed record.
1. C#CCN1CCC(C(=O)NO)(S(=O)(=O)N2CCN(c3ccc(OCCCC)cc3)CC2)CC1
2. CCCCOc1ccc(N2CCN(S(=O)(=O)C3(C(=O)NO)CCN(C(=O)c4ccccn4)CC3)CC2)cc1
3. O=C(NO)C1(S(=O)(=O)N2CCC(c3ccc(OCC(F)(F)C(F)F)cc3)CC2)CCN(C2CC2)CC1
4. O=C(NO)C1(S(=O)(=O)N2CCN(c3ccc(CCCC(F)(F)F)cn3)CC2)CCOCC1
5. CCCCOc1ccc(N2CCN(S(=O)(=O)C3(C(=O)NO)CCN(c4ccccc4)CC3)CC2)cc1

1. 0.46 nM
2. 0.23 nM
3. 0.523 nM
4. 0.15 nM
5. 0.048 nM

---

biological target: MMP-14 (Homo sapiens, UniProt P50281); construct: The catalytic domain enzyme was expressed in E. coli inclusion bodies, solubilized in urea; made in house; assay: MMP-14 inhibition (in vitro Ki); format: biochemical; details: Table 9; read-out: MMP-14 Ki (IC-50)
Consider the following compounds; for each one, report its Ki.

Please review the following examples before continuing.
# compound, recorded metric, value reported
rows = [
    ("CN(C(=O)CCCCN1CCN(S(=O)(=O)C2(C(=O)NO)CCOCC2)CC1)C1CCCCC1 [Example A125]", "Ki", "> 10 µM"),
    ("O=C(NO)C1(S(=O)(=O)N2CCC(OCCCn3nnc(-c4ccc(OC(F)(F)F)cc4)n3)CC2)CCOCC1 [Example A153]", "Ki", "> 10 µM"),
    ("COC(=O)CCCCC1CCN(S(=O)(=O)C2(C(=O)NO)CCOCC2)CC1 [Example A103]", "Ki", "2.88 µM"),
    ("COCC(=O)N1CCC(C(=O)NO)(S(=O)(=O)N2CCC(c3ccc(CCC(F)(F)C(F)(F)F)cn3)CC2)CC1 [Example A109]", "Ki", "3.72 µM"),
]

Fill in Ki for each of the 3 compounds listed.
1. O=C(NO)C1(S(=O)(=O)N2CCC(CCCc3nc(-c4ccc(OC(F)(F)F)cc4)no3)CC2)CCOCC1 [Example A160]
2. O=C(/C=C/C=C/C1CCN(S(=O)(=O)C2(C(=O)NO)CCOCC2)CC1)N1Cc2ccccc2C1 [Example A82]
3. O=C(NO)C1(S(=O)(=O)N2CCC(c3ccc(CCC(F)(F)C(F)(F)F)cn3)CC2)CCN(Cc2ccccc2)CC1 [Example A174]

> 10 µM
> 10 µM
6.52 µM

---

target: MMP-2 (Homo sapiens, UniProt P08253); construct: made in house; host or cells: MMP-2-transfected p2AHT2 cells; assay: MMP-2 inhibition (in vitro Ki); assay type: biochemical; details: Table 8; read-out: MMP-2 Ki
Sequence (P08253 110-660, species assumed): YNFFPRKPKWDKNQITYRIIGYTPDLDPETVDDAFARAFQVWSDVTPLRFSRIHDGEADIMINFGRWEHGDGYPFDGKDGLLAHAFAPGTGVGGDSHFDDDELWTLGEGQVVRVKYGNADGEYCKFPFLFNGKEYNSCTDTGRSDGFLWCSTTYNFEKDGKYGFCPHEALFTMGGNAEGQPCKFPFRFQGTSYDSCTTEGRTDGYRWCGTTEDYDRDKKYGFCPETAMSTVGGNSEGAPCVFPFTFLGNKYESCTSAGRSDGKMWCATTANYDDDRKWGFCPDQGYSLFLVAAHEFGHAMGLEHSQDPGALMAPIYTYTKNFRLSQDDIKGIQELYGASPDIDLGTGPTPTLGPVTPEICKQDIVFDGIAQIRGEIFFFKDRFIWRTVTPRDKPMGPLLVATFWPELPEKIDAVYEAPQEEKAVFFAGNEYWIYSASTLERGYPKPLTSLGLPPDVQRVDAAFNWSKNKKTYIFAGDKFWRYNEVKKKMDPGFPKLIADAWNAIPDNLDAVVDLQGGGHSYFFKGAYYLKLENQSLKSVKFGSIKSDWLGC
Structures can show the parent of a compound that is named as a salt.
Classes by Ki: low interval (below 2 nM), middle interval (2 nM to below 6 nM), high interval (6 nM or more)

Some solved entries appear below for comparison.
# compound, assigned category
rows = [
    ("COCCC(CCOC)(C(=O)NO)S(=O)(=O)N1CCC(c2ccc(CCC(F)(F)C(F)(F)F)cn2)CC1 [Example A61, Hydrochloride]", "low interval"),
    ("O=C(NO)C1(S(=O)(=O)N2CCC(CCOCCCC(F)(F)F)CC2)CCOCC1 [Example A45]", "high interval"),
    ("O=C(NO)C1(S(=O)(=O)N2CCC(OCCCCCC(F)(F)C(F)(F)F)CC2)CCOCC1 [Example A50]", "low interval"),
    ("O=C(NO)C1(S(=O)(=O)N2CCC(CCCCCOCC(F)(F)F)CC2)CCOCC1 [Example A35]", "middle interval"),
    ("CCCCCCCCOC1CCN(S(=O)(=O)C2(C(=O)NO)CCOCC2)CC1 [Example A36B]", "low interval"),
    ("O=C(NO)C1(S(=O)(=O)N2CCC(c3ccc(OCC(F)(F)C(F)F)cn3)CC2)CCOCC1 [Example A59, Hydrochloride]", "low interval"),
    ("O=C(NO)C1(S(=O)(=O)N2CCC(OCCCCCC(F)(F)F)CC2)CCOCC1 [Example A49]", "middle interval"),
    ("CC(F)(F)CCc1ccc(C2CCN(S(=O)(=O)C3(C(=O)NO)CCOCC3)CC2)nc1 [Example A63, Hydrochloride]", "low interval"),
    ("CCCCOCCCC1CCN(S(=O)(=O)C2(C(=O)NO)CCOCC2)CC1 [Example A36I]", "high interval"),
    ("O=C(NO)C1(S(=O)(=O)N2CCC(CCCCCC(F)(F)C(F)(F)F)CC2)CCOCC1 [Example A54]", "low interval"),
]

Tag the class for O=C(NO)C1(S(=O)(=O)N2CCC(CCCCCCCC(F)(F)F)CC2)CCOCC1 [Example A52]
low interval

State the band of COCCC(C(=O)NO)S(=O)(=O)N1CCC(c2ccc(CCC(F)(F)C(F)(F)F)cc2)CC1 (stereo not shown) [Example A66]
middle interval

Which band does O=C(NO)C1(S(=O)(=O)N2CCC(COCCCC(F)(F)F)CC2)CCOCC1 [Example A42] fall in?
high interval

Which bin, given its Ki, does CCCCOCCOC1CCN(S(=O)(=O)C2(C(=O)NO)CCOCC2)CC1 [Example A36H] occupy?
high interval

Band of CC(C)(C)CCOC1CCN(S(=O)(=O)C2(C(=O)NO)CCOCC2)CC1 [Example A36E] ?
high interval

---

target: MMP-1 (Homo sapiens, UniProt P03956); construct: made in house; host or cells: MMP-1-transfected HT-1080 cells (spent media); assay: MMP-1 inhibition (in vitro Ki); format: biochemical; conditions: Table 8; read-out: MMP-1 Ki
Sequence (P03956 100-469, species assumed): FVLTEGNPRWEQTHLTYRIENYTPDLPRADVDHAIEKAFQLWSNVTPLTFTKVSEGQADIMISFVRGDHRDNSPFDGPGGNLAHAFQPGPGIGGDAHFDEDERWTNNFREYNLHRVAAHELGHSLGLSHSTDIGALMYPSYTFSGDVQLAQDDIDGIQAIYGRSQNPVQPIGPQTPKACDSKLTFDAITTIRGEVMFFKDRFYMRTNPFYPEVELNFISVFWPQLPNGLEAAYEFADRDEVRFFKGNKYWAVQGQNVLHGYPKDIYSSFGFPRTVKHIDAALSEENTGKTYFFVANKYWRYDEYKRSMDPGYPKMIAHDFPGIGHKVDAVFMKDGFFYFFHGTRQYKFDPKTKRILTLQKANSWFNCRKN
Structures can show the parent of a compound that is named as a salt.
recorded metric: Ki (µM)
Numbers only, in µM.

# example entries with known answers
# compound, study system, recorded metric, display unit, value reported
records = [
    ("O=C(NO)C1(S(=O)(=O)N2CCC(c3ccc(OCC(F)(F)F)cn3)CC2)CCOCC1 [Example A57, Hydrochloride]", "MMP-1 (Homo sapiens, UniProt P03956)", "Ki", "µM", 1.57),
    ("O=C(NO)C1(S(=O)(=O)N2CCC(CCCCOCCC(F)(F)F)CC2)CCOCC1 [Example A46]", "MMP-1 (Homo sapiens, UniProt P03956)", "Ki", "µM", 1.5),
    ("CCOCCCCCC1CCN(S(=O)(=O)C2(C(=O)NO)CCOCC2)CC1 [Example A38]", "MMP-1 (Homo sapiens, UniProt P03956)", "Ki", "µM", 4.58),
    ("O=C(NO)C1(S(=O)(=O)N2CCC(CCCCCCCC(F)(F)F)CC2)CCOCC1 [Example A52]", "MMP-1 (Homo sapiens, UniProt P03956)", "Ki", "µM", 3.93),
    ("O=C(NO)C1(S(=O)(=O)N2CCC(CCCCC(F)(F)C(F)(F)F)CC2)CCOCC1 [Example A53]", "MMP-1 (Homo sapiens, UniProt P03956)", "Ki", "µM", 2.88),
]

List Ki for every entry below, keeping the order given.
1. O=C(NO)C1(S(=O)(=O)N2CCC(c3cnc(OCCC4CC4)cn3)CC2)CCOCC1 [Example A67]
2. CCC(CC)(C(=O)NO)S(=O)(=O)N1CCC(c2ccc(CCC(F)(F)C(F)(F)F)cn2)CC1 [Example A60, Hydrochloride]

[4.45, 9.18]
